Entries and their measured MIC follow.
System: Salmonella typhimurium
Assay: Antibacterial activity against Salmonella typhimurium DT104 ATCC 700408 incubated overnight by standard microtiter dilution method
Assay type: functional, Salmonella enterica subsp. enterica serovar Typhimurium
Details: Salmonella enterica
Peptide text beside a SMILES is read from it.

compound: CC(C)[C@H](N)C(=O)N[C@@H](CCCCN)C(=O)N[C@H](C(=O)N[C@@H](CCCCN)C(=O)N[C@H](C(=O)N[C@@H](CCCCN)C(=O)N[C@@H](CS)C(=O)N[C@H](C(=O)N[C@@H](CCCCN)C(=O)N[C@@H](CO)C(=O)NCC(=O)N[C@@H](CS)C(=O)N[C@@H](CCCCN)C(=O)N[C@H](C(=O)N[C@@H](CCCCN)C(=O)N[C@H](C(=O)N[C@@H](CCCCN)C(=O)N[C@H](C(N)=O)C(C)C)C(C)C)C(C)C)[C@@H](C)O)C(C)C)C(C)C (H-VKVKVKCTKSGCKVKVKV-NH2)
MIC: 32 µg/mL
//
compound: CC(C)[C@H](N)C(=O)N[C@@H](CCCCN)C(=O)N[C@@H](CS)C(=O)N[C@H](C(=O)N[C@@H](CCCCN)C(=O)N[C@@H](CO)C(=O)NCC(=O)N[C@@H](CS)C(=O)N[C@@H](CCCCN)C(=O)N[C@H](C(N)=O)C(C)C)[C@@H](C)O (H-VKCTKSGCKV-NH2)
MIC: > 128 µg/mL

Q. Determine from records and report MIC for CC(C)C[C@H](NC(=O)[C@H](CCCCN)NC(=O)[C@H](CC(C)C)NC(=O)[C@H](CCCCN)NC(=O)[C@H](CS)NC(=O)CNC(=O)[C@H](CO)NC(=O)[C@H](CCCCN)NC(=O)[C@@H](NC(=O)[C@H](CS)NC(=O)[C@H](CCCCN)NC(=O)[C@H](CC(C)C)NC(=O)[C@H](CCCCN)NC(=O)[C@@H](N)CC(C)C)[C@@H](C)O)C(N)=O (H-LKLKCTKSGCKLKL-NH2)
A. 32 µg/mL

Q. Provide one value: measured MIC of C[C@@H](O)[C@H](NC(=O)[C@H](CS)NC(=O)[C@H](CCCCN)NC(=O)[C@@H](N)Cc1c[nH]c2ccccc12)C(=O)N[C@@H](CCCCN)C(=O)N[C@@H](CO)C(=O)NCC(=O)N[C@@H](CS)C(=O)N[C@@H](CCCCN)C(=O)N[C@@H](Cc1c[nH]c2ccccc12)C(N)=O (H-WKCTKSGCKW-NH2)
A. > 128 µg/mL

Q. Using the record for CC(C)C[C@H](NC(=O)[C@H](CCCCN)NC(=O)[C@H](CS)NC(=O)CNC(=O)[C@H](CO)NC(=O)[C@H](CCCCN)NC(=O)[C@@H](NC(=O)[C@H](CS)NC(=O)[C@H](CCCCN)NC(=O)[C@@H](N)CC(C)C)[C@@H](C)O)C(N)=O (H-LKCTKSGCKL-NH2) , state its measured MIC.
A. > 128 µg/mL

Q. Give the value of MIC reported for the following: CC(C)[C@H](N)C(=O)N[C@@H](CCCCN)C(=O)N[C@H](C(=O)N[C@@H](CCCCN)C(=O)N[C@@H](CS)C(=O)N[C@H](C(=O)N[C@@H](CCCCN)C(=O)N[C@@H](CO)C(=O)NCC(=O)N[C@@H](CS)C(=O)N[C@@H](CCCCN)C(=O)N[C@H](C(=O)N[C@@H](CCCCN)C(=O)N[C@H](C(N)=O)C(C)C)C(C)C)[C@@H](C)O)C(C)C (H-VKVKCTKSGCKVKV-NH2)
A. > 128 µg/mL
